# Run description: 14C assay with IPTG-induced recombinant E. coli cells (14CO2 capture from [14C]-carboxyl-labeled dicamba)
# Experimental setup: IPTG-induced recombinant E. coli cells; [14C]-carboxyl-labeled dicamba; 14CO2 capture

Molecule	Dicamba Decarboxylase Activity
68 (protein, listed as Hoeflea phototrophica) MAIIDAHTHTLCPAVNEKVAGTIKPDSVPYQRDMSPESKEQDHTQFPELKIMFNQVERRLADMARMGIDRQVIAPAPGQQHYWAEPKLLAEISALQNDHVAELVARAPDRFAGIGTLPMTDPDAAVAEITRATRELGLRVFQIDSRVMERELSDASLDPIYAALEAAGAGLMIHPLGFSNGERLTPFFMVNSVAQPLEELLAFNHLVFGGVLDRFPKLKVYIAHGGGFAPFYIGRFDHAWKVRPEVNRLTPSAPSTYLRRIYFDTCVYRTDHIETLVRTVGADRVMLGSDYPFDMGDTDPLGLLNACQGLSDDEKATISSKVAIDFFGLET	No
